B1: glmS ribozyme (parent)
chain: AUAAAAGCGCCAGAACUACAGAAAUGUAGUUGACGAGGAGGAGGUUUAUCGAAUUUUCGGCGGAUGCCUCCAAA

# Variants of: B1
# ASSAY OVERVIEW: self-cleavage kobs at 640 uM GlcN6P; higher = faster cleavage; RNA array
# ASSAY SETUP: with glucosamine-6-phosphate
Variants at the floor of the assay were thinned out.
VALUE TYPE: self-cleavage kobs at 640 uM GlcN6P (s⁻¹)
Just the number please, in s⁻¹, no unit attached.

Before answering, review these 2 worked examples.
AUAAAAGCGCCAGAACUACAGAAAUGUAAGUGACGAGGAGGAGGUUUAUCGGAUUUUCGGCGGAUGCCUCCAAA :: 7.23e-05
AUAAAAGCGCCAGUACUACAGAAAUGUAGUUGACGUGGAGGAGGUUUAUCGAAUUUUCGGCGGAUGCCGCCAAA :: 0.000169

Prompt line: Item under review: AUAAAAGCGCCAGAACUACAGAAAUGUAGGUGACGAGGAGGAGGUUUAUCGAAUUUUAGGCGGAUGCCUCCAAA . Reported self-cleavage kobs at 640 uM GlcN6P?
Response line: 7.21e-05

Prompt line: Item under review: AUAAAAGCGCCAGAGCUACAGAAAUGUAGUUGACGAGGAGGAGGUUUAUCGAAUGUUCGGCGGAUGCCUACAAA . Reported self-cleavage kobs at 640 uM GlcN6P?
Response line: 0.000151

Prompt line: Item under review: AUAAAAGCGCCAGAACUACAGAAAUGUAGUUGACGAGGAGGAGGUUUAUCGAAUUUUAGGCGGAUGCUUCCAAA . Reported self-cleavage kobs at 640 uM GlcN6P?
Response line: 6.75e-05

Prompt line: Item under review: AUAAAUGCGCCAGAGCUACAGAAAUGUAGUUGACGAGGAGGAGGUUUAUCGAAUUUUCGGCGGAUGCCUCCAAA . Reported self-cleavage kobs at 640 uM GlcN6P?
Response line: 4.1e-05

Prompt line: Item under review: AUAAAAGCGCCAGAACUACAGAAAUGUAGAUGACGAGGGGGAGGUUUAUCGAAUUUUCGGCGGAUGCCUCCAAA . Reported self-cleavage kobs at 640 uM GlcN6P?
Response line: 0.00306

All values here come from the supplement of paper PMC7125110.
